Target: T1, human GITR expressed on cells (human, UniProt Q9Y5U5 26-241)
T1 sequence: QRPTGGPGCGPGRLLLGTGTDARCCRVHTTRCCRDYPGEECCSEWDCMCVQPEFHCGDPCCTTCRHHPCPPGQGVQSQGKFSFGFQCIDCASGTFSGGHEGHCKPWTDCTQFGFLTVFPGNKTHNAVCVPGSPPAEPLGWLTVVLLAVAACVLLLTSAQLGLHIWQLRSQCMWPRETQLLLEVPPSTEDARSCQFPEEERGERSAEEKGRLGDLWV
Assay: cell-based or functional assay
Property Label: Average EC50 in human HT1080 (IL-8 induction) (nM)
# value in nM; strip the unit string

// below: answered binders
Binder: ABP37 (antibody, human IgG1, kappa, N297A, V domains shown, IgG1 N297A, bivalent; also called non-TM ABP corresponding to ABP3) VH: QVQLQESGPGLVKPSETLSLTCAVSGYSISSGAGWGWIRQPPGKGLEWIGLIVHSGSTYYNPSLKSRVTISVDTSKNQFSLKLSSVTAADTAVYYCVLESVRGYGDYGGHHAFDIWGQGTMVTVSS VL: DIQMTQSPSSLSASVGDRVTITCRASQSISSYLNWYQQKPGKAPKLLIYAASSLKYGVPSRFSGSGSGTDFTLTISSLQPEDFATYYCQQEYNTPPTFGGGTKVEIKR
U: nM
Numeric Value: 0.19
--
Binder: ABP40 (antibody, human IgG1, kappa, N297A, V domains shown, IgG1 N297A, bivalent; also called non-TM ABP corresponding to ABP7) VH: QVQLQESGPGLVKPSETLSLTCAVSGYSISSEYMWGWIRQPPGKGLEWIGLIYHSGKTYYNPSLKSRVTISVDTSKNQFSLKLSSVTAADTAVYYCAREADRGYGDYGGHHAFDIWGQGTMVTVSS VL: DIQMTQSPSSLSASVGDRVTITCRASQSINSYLNWYQQKPGKAPKLLIYAASSLDSGVPSRFSGSGSGTDFTLTISSLQPEDFATYYCQQEYNTPPTFGGGTKVEIKR
U: nM
Numeric Value: 0.34

Next, consider the following binder.
Challenge: Let me know recorded Average EC50 in human HT1080 (IL-8 induction) for ABP39 (antibody, human IgG1, kappa, N297A, V domains shown, IgG1 N297A, bivalent; also called non-TM ABP corresponding to ABP6) VH: QVQLQESGPGLVKPSETLSLTCAVSGYSISSGAGWGWIRQPPGKGLEWIGLIVHSGSTYYNPSLKSRVTISVDTSKNQFSLKLSSVTAADTAVYYCVLESVRGYGDYGGHHAFDIWGQGTMVTVSS VL: DIQMTQSPSSLSASVGDRVTITCRASQSISSYLNWYQQKPGKAPKLLIYAADSLQSGVPSRFSGSGSGTDFTLTISSLQPEDFATYYCQQEYNTPPTFGGGTKVEIKR , thanks.
Response given: 0.44
